# experimental_protocol: Drug concentration in SCID mouse plasma at 1 mg/kg, po measured at 24 hrs by LC-MS/MS analysis
# Assay type: ADME, organism-based
endpoint_name: concentration at 24 h (ng/mL)
The figure you give is taken to be in ng/mL; do not add the unit.

Find the recorded concentration at 24 h belonging to CC(=O)N1CCc2c(c(N3CCCc4cc(-c5cnn(C)c5)c(C(F)F)cc43)nn2[C@H]2CC[C@H](CN3Cc4cc5c(cc4C3)C(=O)N(C3CCC(=O)NC3=O)C5=O)CC2)C1 (stereo partly specified) and report it.
2.8

###

# experimental_protocol: Drug distribution in Sprague-Dawley rat plasma at 3 mg/kg, po measured at 6 hrs by LC-MS/MS analysis
# Assay type: ADME, organism-based
endpoint_name: concentration at 6 h
Show the value, then the unit it is measured in.

Endpoint output: concentration at 6 h of CC(=O)N1CCc2c(c(N3CCCc4cc(-c5cnn(C)c5)c(C(F)F)cc43)nn2[C@H]2CC[C@H](CN3Cc4cc5c(cc4C3)C(=O)N(C3CCC(=O)NC3=O)C5=O)CC2)C1 (stereo partly specified) . Value?
13.1 ng/mL

###

# experimental_protocol: Drug distribution in SCID mouse liver at 0.3 mg/kg, po measured at 1 hr by LC-MS/MS analysis
# Format: ADME, organism-based
# condition_notes: read-out: Ct
endpoint_name: concentration at 1 h (ng/mL)
Reply with just the number (in ng/mL).

Quick one: concentration at 1 h of CC(=O)N1CCc2c(c(N3CCCc4cc(-c5cnn(C)c5)c(C(F)F)cc43)nn2[C@H]2CC[C@H](CN3Cc4cc5c(cc4C3)C(=O)N(C3CCC(=O)NC3=O)C5=O)CC2)C1 (stereo partly specified) ?
323

###

# experimental_protocol: Cmax in Sprague-Dawley rat at 3 mg/kg, po measured upto 24 hrs by LC/MS-MS analysis
# Format: ADME, organism-based
# condition_notes: in vivo
endpoint_name: Cmax (ng/mL)
Please respond with the number in ng/mL and leave the unit unwritten.

What does the record list as Cmax for CC(=O)N1CCc2c(c(N3CCCc4cc(-c5cnn(C)c5)c(C(F)F)cc43)nn2[C@H]2CC[C@H](CN3Cc4cc5c(cc4C3)C(=O)N(C3CCC(=O)NC3=O)C5=O)CC2)C1 (stereo partly specified) ?
221

###

# experimental_protocol: Plasma protein binding in mouse by LC-MS analysis
# Assay type: ADME, cell-free
# condition_notes: read-out: PPB (converted)
endpoint_name: fraction unbound
Respond with the number and no other words.

I would be grateful if you could share the reported fraction unbound for CC(=O)N1CCc2c(c(N3CCCc4cc(-c5cnn(C)c5)c(C(F)F)cc43)nn2[C@H]2CC[C@H](CN3Cc4cc5c(cc4C3)C(=O)N(C3CCC(=O)NC3=O)C5=O)CC2)C1 (stereo partly specified) .
0.016

###

Task for the reader: assign each of the following compounds its reported DC50.
# assayed_system: Protein cereblon/CREB-binding protein (Homo sapiens, UniProt Q92793+Q96SW2)
# Sequence (Q92793 whole entry): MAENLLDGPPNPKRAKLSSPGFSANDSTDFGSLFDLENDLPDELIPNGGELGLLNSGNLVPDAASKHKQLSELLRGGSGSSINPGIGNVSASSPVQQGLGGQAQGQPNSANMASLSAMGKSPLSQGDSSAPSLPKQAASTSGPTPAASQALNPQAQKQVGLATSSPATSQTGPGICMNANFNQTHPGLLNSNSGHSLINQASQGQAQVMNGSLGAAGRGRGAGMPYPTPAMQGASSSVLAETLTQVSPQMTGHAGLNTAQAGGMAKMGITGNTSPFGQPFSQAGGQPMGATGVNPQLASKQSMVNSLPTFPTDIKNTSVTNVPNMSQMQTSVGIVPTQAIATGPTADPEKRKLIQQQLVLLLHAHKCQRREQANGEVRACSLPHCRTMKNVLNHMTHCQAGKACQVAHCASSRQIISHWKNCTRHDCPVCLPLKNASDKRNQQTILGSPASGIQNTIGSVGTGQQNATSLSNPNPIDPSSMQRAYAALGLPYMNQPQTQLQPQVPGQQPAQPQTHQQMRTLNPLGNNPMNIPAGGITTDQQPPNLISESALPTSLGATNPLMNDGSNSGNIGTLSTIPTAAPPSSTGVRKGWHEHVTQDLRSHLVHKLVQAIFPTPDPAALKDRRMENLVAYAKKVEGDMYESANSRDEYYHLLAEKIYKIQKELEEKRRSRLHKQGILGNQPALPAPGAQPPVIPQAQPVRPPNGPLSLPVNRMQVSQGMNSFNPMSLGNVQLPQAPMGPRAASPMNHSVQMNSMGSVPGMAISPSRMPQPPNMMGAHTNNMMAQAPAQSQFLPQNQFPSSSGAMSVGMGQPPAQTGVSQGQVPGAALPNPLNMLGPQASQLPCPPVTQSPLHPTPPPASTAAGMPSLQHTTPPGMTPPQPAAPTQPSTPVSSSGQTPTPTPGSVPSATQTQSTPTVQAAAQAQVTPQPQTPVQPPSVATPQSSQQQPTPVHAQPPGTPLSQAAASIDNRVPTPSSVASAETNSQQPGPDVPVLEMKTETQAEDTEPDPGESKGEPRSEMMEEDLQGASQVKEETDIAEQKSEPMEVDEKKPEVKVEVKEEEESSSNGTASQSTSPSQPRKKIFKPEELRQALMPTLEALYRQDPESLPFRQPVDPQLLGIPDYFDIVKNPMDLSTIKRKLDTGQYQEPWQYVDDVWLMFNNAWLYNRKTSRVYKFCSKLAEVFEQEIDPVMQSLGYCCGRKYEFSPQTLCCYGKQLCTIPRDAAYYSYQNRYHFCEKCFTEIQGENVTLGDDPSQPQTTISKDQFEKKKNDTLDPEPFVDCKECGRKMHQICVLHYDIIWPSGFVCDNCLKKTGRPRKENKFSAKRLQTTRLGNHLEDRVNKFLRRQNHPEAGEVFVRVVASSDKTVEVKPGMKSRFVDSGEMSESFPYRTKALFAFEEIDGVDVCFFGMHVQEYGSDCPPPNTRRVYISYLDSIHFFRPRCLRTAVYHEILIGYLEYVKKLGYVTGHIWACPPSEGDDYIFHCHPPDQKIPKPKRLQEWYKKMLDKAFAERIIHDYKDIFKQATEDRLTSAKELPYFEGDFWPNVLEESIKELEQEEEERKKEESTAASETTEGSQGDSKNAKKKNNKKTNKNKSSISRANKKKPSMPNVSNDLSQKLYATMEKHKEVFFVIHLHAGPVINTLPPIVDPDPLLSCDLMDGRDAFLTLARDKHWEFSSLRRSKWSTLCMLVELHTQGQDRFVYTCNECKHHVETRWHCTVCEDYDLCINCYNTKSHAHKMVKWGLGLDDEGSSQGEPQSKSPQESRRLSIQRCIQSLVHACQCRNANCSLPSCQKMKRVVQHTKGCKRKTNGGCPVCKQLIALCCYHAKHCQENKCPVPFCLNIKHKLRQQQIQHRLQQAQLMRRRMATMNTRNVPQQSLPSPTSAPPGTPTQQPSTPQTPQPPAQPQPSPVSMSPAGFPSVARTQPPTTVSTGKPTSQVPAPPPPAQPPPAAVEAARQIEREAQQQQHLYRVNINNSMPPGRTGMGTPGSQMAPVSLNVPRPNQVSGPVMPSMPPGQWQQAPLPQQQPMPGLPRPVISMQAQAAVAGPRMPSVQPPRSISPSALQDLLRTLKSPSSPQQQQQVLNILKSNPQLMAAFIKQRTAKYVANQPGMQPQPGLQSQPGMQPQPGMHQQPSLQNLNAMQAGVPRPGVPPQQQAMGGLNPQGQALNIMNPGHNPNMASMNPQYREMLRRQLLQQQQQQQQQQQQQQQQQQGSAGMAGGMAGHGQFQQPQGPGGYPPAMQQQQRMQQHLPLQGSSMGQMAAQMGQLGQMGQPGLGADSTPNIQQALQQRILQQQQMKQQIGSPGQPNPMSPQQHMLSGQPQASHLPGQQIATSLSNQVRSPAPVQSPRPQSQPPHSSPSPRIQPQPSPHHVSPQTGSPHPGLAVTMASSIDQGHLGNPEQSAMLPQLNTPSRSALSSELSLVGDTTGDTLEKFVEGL
# Sequence (Q96SW2 whole entry): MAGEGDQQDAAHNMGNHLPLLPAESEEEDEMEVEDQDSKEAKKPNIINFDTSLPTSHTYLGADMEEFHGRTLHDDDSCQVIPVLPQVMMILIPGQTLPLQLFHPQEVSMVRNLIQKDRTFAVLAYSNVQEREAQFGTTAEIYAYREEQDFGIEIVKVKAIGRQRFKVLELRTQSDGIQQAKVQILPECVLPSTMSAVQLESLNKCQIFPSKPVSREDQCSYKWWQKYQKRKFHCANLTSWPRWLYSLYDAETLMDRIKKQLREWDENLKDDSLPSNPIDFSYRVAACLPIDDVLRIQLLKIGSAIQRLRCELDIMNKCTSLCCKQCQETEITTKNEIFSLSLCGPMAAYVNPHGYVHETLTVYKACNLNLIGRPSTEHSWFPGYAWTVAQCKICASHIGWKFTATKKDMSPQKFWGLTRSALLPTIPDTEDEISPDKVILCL
# experimental_protocol: PROTAC activity at CBP/CRBN in human U2OS cells assessed as induction of CBP degradation incubated for 24 hrs by Nan-glo HiBiT lytic assay
# Format: cell-based
Give the number; nM is assumed, so skip it.

Please give the measured DC50 for this compound: CC(=O)N1CCc2c(c(N3CCCc4cc(-c5ccccc5)c(C(F)F)cc43)nn2C2CCN(C(=O)CN3Cc4cc5c(cc4C3)C(=O)N(C3CCC(=O)NC3=O)C5=O)CC2)C1 (stereo unspecified)
31

Continue with CC(=O)N1CCc2c(c(N3CCCc4cc(-c5cnn(C)c5)c(C(F)F)cc43)nn2C2CCN(C(=O)CCCCCN3Cc4cc5c(cc4C3)C(=O)N(C3CCC(=O)NC3=O)C5=O)CC2)C1 (stereo unspecified)
362

What do we get for CC(=O)N1CCc2c(c(N3CCCc4cc(Br)c(C(F)F)cc43)nn2C2CCN(C(=O)CN3Cc4cc5c(cc4C3)C(=O)N(C3CCC(=O)NC3=O)C5=O)CC2)C1 (stereo unspecified) ?
64

Try this compound too: CC(=O)N1CCc2c(c(N3CCCc4cc(-c5cnn(C)c5)c(C(F)F)cc43)nn2C2CCN(C(=O)CCCCN3Cc4cc5c(cc4C3)C(=O)N(C3CCC(=O)NC3=O)C5=O)CC2)C1 (stereo unspecified)
168

Param item: CC(=O)N1CCc2c(c(N3CCCc4cc(C5CC5)c(C(F)F)cc43)nn2C2CCN(C(=O)CN3Cc4cc5c(cc4C3)C(=O)N(C3CCC(=O)NC3=O)C5=O)CC2)C1 (stereo unspecified)
52

Would you mind doing CC(=O)N1CCc2c(c(N3CCCc4cc(C)c(C(F)F)cc43)nn2C2CCN(C(=O)CN3Cc4cc5c(cc4C3)C(=O)N(C3CCC(=O)NC3=O)C5=O)CC2)C1 (stereo unspecified) as well?
55
